Reference source for all entries: patent US11285135B2

Coupled exchange IC50 values, listed per item
# assayed-system: GDP-bound protein (aa 1-169), containing both G12C and C118A amino acid substitutions (Homo sapiens, UniProt P01116, C118A/G12C)
# Sequence (P01116 1-169 isoform P01116-2 G12C/C118A): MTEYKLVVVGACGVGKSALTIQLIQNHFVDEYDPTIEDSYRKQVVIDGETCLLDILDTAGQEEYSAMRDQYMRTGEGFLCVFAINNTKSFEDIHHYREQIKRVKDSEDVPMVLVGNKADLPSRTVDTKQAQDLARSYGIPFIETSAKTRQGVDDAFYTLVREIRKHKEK
# procedure-details: Coupled Nucleotide Exchange Assay (SOS-mediated nucleotide exchange, AlphaScreen)
# Assay type: biochemical
# measurement-parameters: 2 hours compound pre-incubation
Dear colleague, please return just the value in µM, with no unit written.

Record excerpt, results attached:
{"columns": ["compound", "Coupled exchange IC50 / µM"],
 "data": [
  ["C=CC(=O)N1CCN(c2nnc(-c3ccccc3)c3cc(Cl)c(-c4c(O)cccc4F)cc23)CC1", 123],
  ["C=CC(=O)N1CCN(c2nnc(-c3ccccc3C3CC3)c3cc(-c4c(O)cccc4F)c(Cl)cc23)CC1", 0.359],
  ["C=CC(=O)N1CCN(c2nnc(C(C)c3ccccc3)c3cc(-c4c(O)cccc4F)c(Cl)cc23)CC1 (racemic)", 8.17]
]}

Query (compound): C=CC(=O)N1CCN(c2snc3c(F)c(-c4cccc5ccccc45)c(Cl)cc23)CC1 ; field requested: Coupled exchange IC50
4.65
